tested on: CCRF-CEM leukemia; assay: NCI tumour cell line growth inhibition, 48 h
measured-attribute: TGI

Example cases with answers are listed next.
[[record]]
compound = "O=C(OCCOC(=O)c1ccc2c(c1)C1(SCCS1)c1ccccc1-2)c1ccc2c(c1)C1(SCCS1)c1ccccc1-2"
measured_attribute = "TGI"
result = "> 100 µM"

[[record]]
compound = "CC1=NN(C(=O)CC(=O)Nc2ccccc2)C(=O)C1N=Nc1ccc(C(=O)O)cc1 (stereo unspecified)"
measured_attribute = "TGI"
result = "> 100 µM"

[[record]]
compound = "O=C(Nc1ccc(Cl)cc1)c1cc2c(cc1Cl)Sc1nccn1S2(=O)=O"
measured_attribute = "TGI"
result = "> 100 µM"

[[record]]
compound = "CCOC(=O)/C(C#N)=C/c1ccc(SCc2ccco2)c([N+](=O)[O-])c1"
measured_attribute = "TGI"
result = "> 100 µM"

[[record]]
compound = "Cc1cc(O)c(/C=N/c2nc(-c3ccc([N+](=O)[O-])cc3)cs2)c(=O)o1"
measured_attribute = "TGI"
result = "> 100 µM"


Hey, quick one: what's TGI for each of these?
1. O=C1C(=Cc2cccs2)C(=O)N(CCc2ccccc2)S(=O)(=O)N1CCc1ccccc1
2. c1ccc2c(CC3NCCN3)cccc2c1
3. NC(=O)NN/C=C(/C=Nc1ccccc1)[N+](=O)[O-]
4. COC(=O)C1CCC2(C)[C@H](CCC3O[C@]32C)[C@@]1(C)CC(=O)c1ccoc1 (stereo partly specified)
5. Cc1cc(N(CCNc2ccnc3cc(Cl)ccc23)Cc2cccs2)nc(Cl)n1

1: > 50 µM; 2: > 100 µM; 3: > 100 µM; 4: > 100 µM; 5: 5.41 µM

Hey, quick one: what's TGI for each of these?
1. COc1nc(Cl)nc(Cl)c1Cl (tested in a mixture with another compound)
2. CCCN(CCC)c1ccc(CO)c(Cl)c1
3. O=C1C(Cl)N(c2ccc(Cl)cc2Cl)C1c1c[nH]c2ccccc12 (stereo unspecified)
4. Cc1nc2sccn2c1C(=O)N/N=C1\SCC(=O)N1C
5. [Cl-].[Nd+3].[O-]/N=C(\c1ccccc1)c1ccccn1.[O-]/N=C(\c1ccccc1)c1ccccn1.[O-]/N=C(\c1ccccc1)c1ccccn1

1: 12.1 µM; 2: 51.7 µM; 3: > 100 µM; 4: > 100 µM; 5: 95.3 µM

For record "CC(=O)N(O)CCCCCNC(=O)CCC(=O)N(O)CCCCCNC(=O)CCC(=O)N(O)CCCCCN" the listed TGI is > 54.4 µM

====

system: SNB-19 CNS; assay: NCI tumour cell line growth inhibition, 48 h; in the data active = GI50 below about 0.43 µM; inactive = the rest
Tick one outcome: Yes for active, No for inactive

[[record]]
molecule = "Oc1cccc(-c2nc(-c3n[nH]c(=S)n3-c3ccccc3)cc3c2[nH]c2ccccc23)c1"
subject_of_test = "SNB-19 CNS"
assigned_class = "No"

[[record]]
molecule = "C=C1C(=O)O[C@H]2[C@H]1CC/C(COC(=O)CCCC(=O)OC/C1=C/CC[C@@]3(C)O[C@H]3[C@H]3OC(=O)C(=C)[C@@H]3CC1)=C\\CC[C@@]1(C)O[C@@H]21"
subject_of_test = "SNB-19 CNS"
assigned_class = "No"

[[record]]
molecule = "C=C1C(=O)O[C@H]2[C@H]1CC/C(COC(=O)CCSSCCC(=O)OC/C1=C/CC[C@@]3(C)O[C@H]3[C@H]3OC(=O)C(=C)[C@@H]3CC1)=C\\CC[C@@]1(C)O[C@@H]21"
subject_of_test = "SNB-19 CNS"
assigned_class = "No"

[[record]]
molecule = "COc1ccc2c(c1)NC(=O)CN2c1nc(NC2CC2)nc2ccccc12"
subject_of_test = "SNB-19 CNS"
assigned_class = "Yes"


Call for entry "COC(=O)C1=CN(CC2=CC(=O)C(C)=CC2=O)C=C(C(=O)OC)C1c1cc(OC)ccc1OC" :
No

Call for entry "CC(=O)N1CCC(Nc2cc(C(=O)NC[C@H](O)CN3CCc4ccccc4C3)ncn2)CC1" :
No

Call for entry O=C(Nc1ccc([As]=[As]c2ccc(NC(=O)c3ccccc3)cc2)cc1)c1ccccc1 (centres undefined) :
No

Call for entry "CCCCCCCC(=O)SCC/C=C/[C@@H]1CC(=O)NCc2cccc(n2)CN(Cc2ccc3ccccc3c2)CC(=O)N[C@@H](C(C)C)C(=O)O1" :
No

Call for entry "CCCN(CCC)c1ccc(CO)c(Cl)c1" :
No
